Read-out: Epidermal growth factor receptor (EGFR), EGFR (gene 1956)
testName: BSK_hDFCGF_EGFR: BioMAP Diversity Plus: hDFCGF Assay for Epidermal growth factor receptor (EGFR) Biomarker Activity (AID 2283057)
conditionSummary: primary human foreskin fibroblasts; actives raise or lower the signal
Active and inactive are the calls of the source. Rule for the calls: active = hit-call score of the fitted dose curve at least 0.9, where 1 is the maximum; inactive = score below 0.9.
Answer with one of the outcomes active, inactive

What did the test return for O=P(O)(O)CCCl ?
inactive

Please indicate how the test categorized CCOc1nc(C(Cl)(Cl)Cl)ns1 .
inactive

Check the results log: what was the call for N#Cc1c(Cl)cccc1Cl ?
inactive

Name the outcome recorded for O=c1n(Cl)c(=O)n(Cl)c(=O)n1Cl in the assay.
inactive

Give the logged outcome of this assay for the following compound: COP(=S)(OC)Oc1ccc([N+](=O)[O-])c(C)c1
inactive

I'd appreciate the recorded outcome for COCc1cnc(C2=NC(C)(C(C)C)C(=O)N2)c(C(=O)O)c1 (stereo not drawn) from this test.
inactive

Further cases:
Hi, do you know how CN=C=S came out in this test?
active

// outcome(item) with item = CCOP(=O)(OCC)Oc1nc(Cl)c(Cl)cc1Cl
inactive

Given COC(=O)NC(=S)Nc1ccccc1NC(=S)NC(=O)OC , state the outcome it received in this test.
inactive

Please state the recorded outcome for this compound: COCC(C)N(C(=O)CCl)c1c(C)csc1C (stereo not drawn)
inactive

# outcome recorded in this test, key = CCOC(=O)C(C)OC(=O)c1cc(Oc2ccc(C(F)(F)F)cc2Cl)ccc1[N+](=O)[O-] (stereo not drawn)
inactive

What classification did O=C(Nc1ccccc1-c1ccc(Cl)cc1)c1cccnc1Cl end up with in this test?
inactive

State the result this test recorded for CC(C)Oc1cccc(NC(=O)c2ccccc2C(F)(F)F)c1 .
inactive

Per the records of this test, what outcome belongs to CCCN(CC)CC1COC2(CCC(C(C)(C)C)CC2)O1 (stereo not drawn) ?
inactive

Record lookup: outcome of this test for CCCCC(O)(Cn1cncn1)c1ccc(Cl)cc1Cl (stereo not drawn) ?
inactive

Give the logged outcome of this assay for the following compound: CO/N=C(/C1=NOCCO1)c1ccccc1Oc1ncnc(Oc2ccccc2Cl)c1F
inactive

Hello, I am checking results. What call was entered for Clc1nc(Cl)nc(Nc2ccccc2Cl)n1 ?
inactive

Any idea what this test logged for COP(=O)(OC)O/C(C)=C/C(=O)N(C)C ?
inactive

====

testName: ATG_PXRE_CIS: Attagene CIS-FACTORIAL HepG2 Assay for human Pregnane X Receptor Element (PXRE) (AID 2282957)
conditionSummary: HepG2 Attagene CIS-FACTORIAL PXRE reporter, mRNA; actives raise or lower the signal
Activity calls are given as the source filed them. Rule for the calls: active = hit-call score of the fitted dose curve at least 0.9, where 1 is the maximum; inactive = score below 0.9.
// classify into t for active, f for inactive

I'd appreciate the recorded outcome for Clc1cccc(C(Cl)(Cl)Cl)n1 from this test.
t

Others:
Assay result, entry N#Cc1c[nH]cc1-c1cccc2c1OC(F)(F)O2 — outcome?
t

Which outcome did this test record for the compound CC1(C)CCC(=Cc2ccc(Cl)cc2)C1(O)Cn1cncn1 (stereo unspecified) ?
t

Write down the call the test reported for this compound. Item: CCN(CC)C(=O)C(C)Oc1cccc2ccccc12 (stereo unspecified)
t

Please indicate how the test categorized Nc1c(Cl)c(Cl)nc(C(=O)O)c1Cl .
t

Test call, this compound: CC1(C)C(C(=O)OC(C#N)c2cccc(Oc3ccccc3)c2)C1(C)C (stereo unspecified)
t

For O=c1n(Cl)c(=O)n(Cl)c(=O)n1Cl , which call appears in the assay record?
t

Per the assay record, what outcome was assigned to COCc1cnc(C2=NC(C)(C(C)C)C(=O)N2)c(C(=O)O)c1 (stereo unspecified) ?
f

Fill in: this test's call for CCCCC(O)(Cn1cncn1)c1ccc(Cl)cc1Cl (stereo unspecified) is ___
t

For this compound, state the assay outcome: CC(C)(C)C(=O)C(Oc1ccc(Cl)cc1)n1cncn1 (stereo unspecified)
t

Could you check what this test reported for CC(C)N1C(=O)c2ccccc2NS1(=O)=O ?
t

What did the test return for CCNC(=O)NC(=O)C(C#N)=NOC ?
f

For this compound, state the assay outcome: CCOP(=S)(OCC)Oc1nc(Cl)n(C(C)C)n1
t

Per the records of this test, what outcome belongs to CNC(=O)Oc1cccc2ccccc12 ?
t

Query: recorded result category for Clc1nc(Cl)nc(Nc2ccccc2Cl)n1 in this test
t

Hello, I am checking results. What call was entered for CS(=O)(=O)c1ccc(C(=O)C2C(=O)CCCC2=O)c([N+](=O)[O-])c1 ?
f

For this compound, state the assay outcome: CCN(CC)c1nc(C)cc(OP(=S)(OC)OC)n1
t

Hello, I am checking results. What call was entered for O=P(O)(O)CCCl ?
f

====

Read-out: succinate dehydrogenase complex iron sulfur subunit B (SDHB), SDHB (gene 6390)
testName: LTEA_HepaRG_SDHB: Life Technologies and Expression Analysis (LTEA) Assay for succinate dehydrogenase complex iron sulfur subunit B (SDHB) using HepaRG (AID 2283528)
conditionSummary: mRNA level, 48 h; actives raise or lower the signal
Activity calls are given as the source filed them. Rule for the calls: active = hit-call score of the fitted dose curve at least 0.9, where 1 is the maximum; inactive = score below 0.9.
resultType: outcome

Solved cases below.
Recorded outcome of Cc1ccc(N=CN(C)C=Nc2ccc(C)cc2C)c(C)c1 , please.
inactive

What does the data say about its outcome? Entry: CNC(=O)Oc1cccc2ccccc12
inactive

outcome for CCOc1cc(C(C)(C)C)ccc1C1COC(c2c(F)cccc2F)=N1 (stereo not given) ?
inactive

# get_value(readout='outcome', item= COC(=O)N(C(=O)N1CO[C@@]2(C(=O)OC)Cc3cc(Cl)ccc3C2=N1)c1ccc(OC(F)(F)F)cc1 )
inactive

Requested read-out: outcome. Entry: CC(C)N1C(=O)c2ccccc2NS1(=O)=O
inactive

Fill in outcome for each of the 3 compounds listed.
1. N#Cc1c[nH]cc1-c1cccc2c1OC(F)(F)O2
2. CCOC(=O)C(C)OC(=O)c1cc(Oc2ccc(C(F)(F)F)cc2Cl)ccc1[N+](=O)[O-] (stereo not given)
3. O=C(Nc1ccccc1-c1ccc(Cl)cc1)c1cccnc1Cl

1: inactive; 2: inactive; 3: inactive

====

testName: APR_HepG2_P-H2AX_1hr: Apredica 1-hour HepG2 Assay for H2AX Phosphorylation (AID 2282673)
conditionSummary: high-content imaging, actives raise or lower the signal
Activity calls are given as the source filed them. The calls were made as follows: active = hit-call score of the fitted dose curve at least 0.9, where 1 is the maximum; inactive = score below 0.9.
Hello, when you answer, please use one of the following outcomes: active, inactive

Reference set, count: 5
In this assay, the call recorded for CO/N=C(/C1=NOCCO1)c1ccccc1Oc1ncnc(Oc2ccccc2Cl)c1F was what?
inactive

Tell me the assay call for Cc1cnc(C2=NC(C)(C(C)C)C(=O)N2)c(C(=O)O)c1 (stereo unspecified) please.
inactive

Please indicate how the test categorized O=C1C2CC=CCC2C(=O)N1SC(Cl)(Cl)Cl (stereo unspecified) .
active

Which outcome was entered for the compound CC1(C)CCC(=Cc2ccc(Cl)cc2)C1(O)Cn1cncn1 (stereo unspecified) in this test?
inactive

For O=c1n(Cl)c(=O)n(Cl)c(=O)n1Cl , what call appears in the results of this test?
inactive

Now consider a different compound.
Query: recorded result category for CSC(=O)c1c(C(F)F)nc(C(F)(F)F)c(C(=O)SC)c1CC(C)C in this test
inactive

====

testName: CCTE_Mundy_HCI_Cortical_NOG_BPCount: CCTE's Neurite Outgrowth Assay in rat cortical cells for Branch Point Count, Mundy Lab (AID 2284237)
Activity calls are given as the source filed them. The calls were made as follows: active = hit-call score of the fitted dose curve at least 0.9, where 1 is the maximum; inactive = score below 0.9.
Could you please pick one outcome from this set? active, inactive

Before answering, review these 5 worked examples.
Outcome logged for CCSC(=O)N1CCCCCC1 in this assay:
inactive

Query: recorded result category for CN/C(=N\[N+](=O)[O-])NCc1cnc(Cl)s1 in this test
inactive

Look up the recorded call for CC1(C)C(C=C(Cl)Cl)C1C(=O)OC(C#N)c1cccc(Oc2ccccc2)c1 (stereo not given) in this test.
inactive

Could you kindly confirm the outcome this assay logged for CS(=O)(=O)c1ccc(C(=O)C2C(=O)CCCC2=O)c([N+](=O)[O-])c1 ?
inactive

Any idea what this test logged for O=C(Nc1ccccc1-c1ccc(Cl)cc1)c1cccnc1Cl ?
inactive

More entries:
Write down the call the test reported for this compound. Item: N#CN=C1SCCN1Cc1ccc(Cl)nc1
inactive

Assay result, entry Cc1c(COC(=O)[C@@H]2[C@H](/C=C(\Cl)C(F)(F)F)C2(C)C)cccc1-c1ccccc1 — outcome?
active

Please indicate how the test categorized CC(C)(C)C(=O)C(Oc1ccc(Cl)cc1)n1cncn1 (stereo not given) .
active

Just curious, what result did CCN(CC)c1nc(C)cc(OP(=S)(OC)OC)n1 get here?
active

Hi, sorry to bother you, what did the test record for CCOP(=O)(OCC)Oc1nc(Cl)c(Cl)cc1Cl ?
inactive

====

Read-out: Pselectin, SELP (gene 6403)
testName: BSK_4H_Pselectin: BioMAP Diversity Plus: 4H Assay for Pselectin Biomarker Activity (AID 2283026)
conditionSummary: primary human endothelial cells (HUVEC); actives raise or lower the signal
Activity calls are given as the source filed them. Rule for the calls: active = hit-call score of the fitted dose curve at least 0.9, where 1 is the maximum; inactive = score below 0.9.
Thanks in advance; please answer with one of these: class 1 for active, class 0 for inactive

Each molecule tested received a call. Report the one for Cc1c(COC(=O)[C@@H]2[C@H](/C=C(\Cl)C(F)(F)F)C2(C)C)cccc1-c1ccccc1 .
class 1

What call does the record list for CCCC(=NOCC)C1=C(O)CC(CC(C)SCC)CC1=O (centres undefined) ?
class 0

Lab log entry: CCOc1nc(F)cc2nc(S(=O)(=O)Nc3c(Cl)cccc3Cl)nn12 — outcome as called in the assay?
class 0

Tell me the assay call for CCNC(=O)NC(=O)C(C#N)=NOC please.
class 0

Fill in: this test's call for CCCCC(C#N)(Cn1cncn1)c1ccc(Cl)cc1 (centres undefined) is ___
class 0

For this molecule, state the assay outcome: Cc1nc(N(C)C)nc(OC(=O)N(C)C)c1C
class 0

Outcome? CCSC(=O)N1CCCCCC1
class 0

Hello, I am checking results. What call was entered for C=CCOC(=O)C(C)(C)OC(=O)c1cc(-n2c(=O)cc(C(F)(F)F)n(C)c2=O)ccc1Cl ?
class 0

Others:
Write down the call the test reported for this molecule. Item: CN=C=S
class 0

What outcome does the record of this test show for COP(=O)(OC)O/C(C)=C/C(=O)N(C)C ?
class 0

Short answer needed: outcome of this test for CCN(CC)c1nc(C)cc(OP(=S)(OC)OC)n1 ?
class 0

Write down the call the test reported for this molecule. Item: CC(C)N1C(=O)c2ccccc2NS1(=O)=O
class 0

Tell me the recorded outcome of this test for COc1cc(Cl)c(OC)cc1Cl .
class 0

Write down the call the test reported for this molecule. Item: COCC(=O)N(c1c(C)cccc1C)C(C)C(=O)OC (centres undefined)
class 0
